target: rat metabotropic glutamate receptor 5 (mGluR5) (Rattus norvegicus); construct: expressed in transfected cells; host or cells: HEK 293; assay: Calcium mobilization assay (FLIPR) for negative or positive allosteric activity, HEK 293 cells; assay type: cell-based; conditions: HEK293, negative allosteric modulation, inhibition of EC80 glutamate response; read-out: FLIPR maximum inhibition
Sequence (P31424 21-1171 isoform P31424-2 limits assumed): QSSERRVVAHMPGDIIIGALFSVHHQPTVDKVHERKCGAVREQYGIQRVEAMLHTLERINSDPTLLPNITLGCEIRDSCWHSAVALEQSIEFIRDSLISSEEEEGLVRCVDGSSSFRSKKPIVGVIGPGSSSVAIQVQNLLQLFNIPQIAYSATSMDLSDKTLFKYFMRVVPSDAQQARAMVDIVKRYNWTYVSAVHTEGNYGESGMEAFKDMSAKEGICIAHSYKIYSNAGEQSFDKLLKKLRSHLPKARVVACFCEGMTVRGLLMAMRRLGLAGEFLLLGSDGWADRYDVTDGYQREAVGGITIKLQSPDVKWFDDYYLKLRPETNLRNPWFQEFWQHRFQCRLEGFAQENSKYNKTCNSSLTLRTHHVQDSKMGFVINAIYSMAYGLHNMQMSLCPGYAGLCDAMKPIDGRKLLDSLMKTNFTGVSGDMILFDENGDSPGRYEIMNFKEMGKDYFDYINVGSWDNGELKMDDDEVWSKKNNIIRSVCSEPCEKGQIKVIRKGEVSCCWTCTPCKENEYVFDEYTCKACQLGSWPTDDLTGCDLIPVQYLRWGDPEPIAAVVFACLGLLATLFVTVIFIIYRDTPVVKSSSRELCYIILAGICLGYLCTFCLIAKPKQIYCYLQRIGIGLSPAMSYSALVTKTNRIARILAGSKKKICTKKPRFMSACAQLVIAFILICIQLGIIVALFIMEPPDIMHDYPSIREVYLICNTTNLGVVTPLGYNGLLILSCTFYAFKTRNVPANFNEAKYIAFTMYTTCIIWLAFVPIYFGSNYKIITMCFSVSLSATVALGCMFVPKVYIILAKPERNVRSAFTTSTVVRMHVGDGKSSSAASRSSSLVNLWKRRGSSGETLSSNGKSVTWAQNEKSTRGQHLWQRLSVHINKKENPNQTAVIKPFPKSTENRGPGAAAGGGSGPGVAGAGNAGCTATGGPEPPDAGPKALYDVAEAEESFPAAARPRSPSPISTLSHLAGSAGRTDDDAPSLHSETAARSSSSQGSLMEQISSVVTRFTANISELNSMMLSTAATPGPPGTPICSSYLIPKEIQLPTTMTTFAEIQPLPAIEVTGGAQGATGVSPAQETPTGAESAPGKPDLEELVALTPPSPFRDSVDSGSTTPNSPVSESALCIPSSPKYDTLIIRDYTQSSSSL
MEASURED_QUANTITY: Emax

Sample answers from the record:
MOLECULAR_STRING	Emax
Cc1cc(C(=O)NC23CC4CC(C2)CC(NC(=O)c2cncc(C)n2)(C4)C3)ccn1	70 to 99%
O=C(NC12CC3CC(C1)CC(NC(=O)c1ccccn1)(C3)C2)c1ccccn1	90 to 99%
Cc1cncc(C(=O)NC23CC4CC(C2)CC(NC(=O)c2cccc(F)n2)(C4)C3)n1	63 to 99%
Cc1cccc(C(=O)NC23CC4CC(C2)CC(NC(=O)c2cnc5ccccc5n2)(C4)C3)n1	63 to 99%

[Q] Need Emax, item Cc1cccc(C(=O)NC23CC4CC(C2)CC(NC(=O)c2ccc5cccnc5n2)(C4)C3)n1
[A] 63 to 99%

[Q] Fill blank: measured Emax of the compound O=C(NC12CC3CC(C1)CC(NC(=O)c1cccc(N4CCOCC4)n1)(C3)C2)c1cccc(F)c1 is ____.
[A] 63 to 99%

[Q] Name the recorded Emax for Cc1cccc(C(=O)NC23CC4CC(C2)CC(NC(=O)c2nn(C)c5ccccc25)(C4)C3)n1 .
[A] 63 to 99%

[Q] Given Cc1cncc(C(=O)NC23CC4CC(C2)CC(NC(=O)c2cccc(Cl)c2F)(C4)C3)n1 , state its recorded Emax.
[A] 70 to 99%

[Q] Fill in the blank: the reported Emax of Cc1cncc(C(=O)NC23CC4CC(C2)CC(NC(=O)c2cccc(C(F)(F)F)c2F)(C4)C3)n1 is ____.
[A] 70 to 99%

[Q] Form field: reported Emax of Cc1cccc(C(=O)NC23CC4CC(CC(NC(=O)c5cccnc5)(C4)C2)C3)n1
[A] 70 to 99%

[Q] Which Emax is reported for this compound? O=C(NC12CC3CC(C1)CC(NC(=O)c1ccccn1)(C3)C2)c1cccc(F)c1
[A] 63 to 99%

[Q] Emax lookup needed for Cc1cccc(C(=O)NC23CC4CC(C2)CC(NC(=O)c2cccc(C(F)(F)F)n2)(C4)C3)n1 , thanks.
[A] 63 to 99%

[Q] What Emax value was documented for this compound, Cc1ccnc(C(=O)NC23CC4CC(CC(NC(=O)c5ccnc(C)n5)(C4)C2)C3)n1 ?
[A] 63 to 99%

[Q] Would you mind telling me what Emax value was observed for Cc1cccc2nc(C(=O)NC34CC5CC(CC(NC(=O)c6cccc(F)c6)(C5)C3)C4)cn12 ?
[A] 63 to 99%

[Q] Given the compound Cc1ccnc(C(=O)NC23CC4CC(CC(NC(=O)c5cnccn5)(C4)C2)C3)n1 , what is its reported Emax?
[A] 63 to 99%

[Q] Give the measured Emax of Cc1cccc(C(=O)NC23CC4CC(CC(NC(=O)c5ccc(F)cn5)(C4)C2)C3)n1 .
[A] 70 to 99%

Numbers sourced from patent US8716284B2.
